Provenance of the data: PubChem BioAssay (Tox21)

biological target: Nuclear receptor subfamily 1 group I member 2 (Rattus norvegicus) (UniProt Q9R1A7); assay: Rat pregnane X receptor (rPXR) activation by small molecules, qHTS assay (AID 1346983); details: rPXR luciferase reporter cells, One-Glo luminescence, 24 h; hits give high values; note: % is set by controls: 0 for no effect and ±100 for the full control effect; nearly all actives have a fitted effect of over 20% in size
Sequence (Q9R1A7 whole entry, looked up): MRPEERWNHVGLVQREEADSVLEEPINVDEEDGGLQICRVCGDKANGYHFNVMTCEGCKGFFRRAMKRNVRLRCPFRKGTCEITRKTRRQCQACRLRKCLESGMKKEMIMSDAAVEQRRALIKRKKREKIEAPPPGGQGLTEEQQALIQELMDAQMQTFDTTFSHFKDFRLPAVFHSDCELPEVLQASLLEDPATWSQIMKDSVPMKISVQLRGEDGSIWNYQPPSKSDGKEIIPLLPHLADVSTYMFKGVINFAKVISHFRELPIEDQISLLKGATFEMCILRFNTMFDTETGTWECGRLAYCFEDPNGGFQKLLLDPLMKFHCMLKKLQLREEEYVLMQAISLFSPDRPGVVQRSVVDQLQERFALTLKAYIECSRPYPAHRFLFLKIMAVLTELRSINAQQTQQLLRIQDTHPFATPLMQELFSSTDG
Records with an inconclusive call do not appear.
METRIC_NAME: max activation (%)

molecule="N#Cc1nn(-c2c(Cl)cc(C(F)(F)F)cc2Cl)c(N)c1S(=O)C(F)(F)F (centres undefined)" target_system="Nuclear receptor subfamily 1 group I member 2 (Rattus norvegicus) (UniProt Q9R1A7)" metric_name="max activation" value_observed=-2.65
molecule=NN=C(N)N target_system="Nuclear receptor subfamily 1 group I member 2 (Rattus norvegicus) (UniProt Q9R1A7)" metric_name="max activation" value_observed=-0.866
molecule=O=[N+]([O-])/N=C1\NCCN1Cc1ccc(Cl)nc1 target_system="Nuclear receptor subfamily 1 group I member 2 (Rattus norvegicus) (UniProt Q9R1A7)" metric_name="max activation" value_observed=-0.749
molecule="CCC1(c2ccc(N)cc2)CCC(=O)NC1=O (centres undefined)" target_system="Nuclear receptor subfamily 1 group I member 2 (Rattus norvegicus) (UniProt Q9R1A7)" metric_name="max activation" value_observed=-2.76
molecule="CC(C)=CC1C(C(=O)OCN2C(=O)C3=C(CCCC3)C2=O)C1(C)C (centres undefined)" target_system="Nuclear receptor subfamily 1 group I member 2 (Rattus norvegicus) (UniProt Q9R1A7)" metric_name="max activation" value_observed=-0.665
molecule=Oc1ccc(Cl)cc1Cc1ccccc1 target_system="Nuclear receptor subfamily 1 group I member 2 (Rattus norvegicus) (UniProt Q9R1A7)" metric_name="max activation" value_observed=-2.22
molecule="CC(C)=CC1C(C(=O)OCc2cccc(Oc3ccccc3)c2)C1(C)C (centres undefined)" target_system="Nuclear receptor subfamily 1 group I member 2 (Rattus norvegicus) (UniProt Q9R1A7)" metric_name="max activation" value_observed=1.4
molecule=NC(=O)CN1CCCC1=O target_system="Nuclear receptor subfamily 1 group I member 2 (Rattus norvegicus) (UniProt Q9R1A7)" metric_name="max activation" value_observed=-4.89
molecule=C[N+](C)(C)CC(=O)O target_system="Nuclear receptor subfamily 1 group I member 2 (Rattus norvegicus) (UniProt Q9R1A7)" metric_name="max activation" value_observed=-1.07

* * *

experiment: qHTS assay to identify small molecule agonists of the endoplasmic reticulum stress response signaling pathway - cell viability counter screen (AID 1159517); settings: ESRE-bla HeLa viability, CellTiter-Glo luminescence, 5 h; series mostly up to 61 µM;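 note: HeLa cells carrying an ER stress response element beta-lactamase reporter; % is set by controls: 0 for no effect and ±100 for the full control effect; nearly all actives have a fitted effect of over 50% in size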
Records with an inconclusive call do not appear. Active and inactive are the calls of the source. Calls come from the whole dose curve.
METRIC_NAME: outcome

compound=CC(C)(O)C(=O)Nc1ccc([N+](=O)[O-])c(C(F)(F)F)c1 value_observed=inactive
compound=COc1ccc(CO)cc1 value_observed=inactive
compound="CC(O)CN(CC(C)O)CC(C)O (centres undefined)" value_observed=inactive
compound=Cc1cc(Cl)ccc1N=CN(C)C value_observed=inactive
compound=CCC(=O)Nc1ccc(Cl)c(Cl)c1 value_observed=inactive
compound=CNC(=S)S value_observed=inactive
compound=Nc1ccc2ccccc2c1 value_observed=inactive
compound=ClC(Cl)(Cl)Br value_observed=inactive
compound=CSc1nc(NC(C)C)nc(NC(C)C)n1 value_observed=inactive
compound=COP(=S)(OC)Oc1ccc(S(=O)(=O)N(C)C)cc1 value_observed=inactive
compound=CCOP(=S)(OCC)SCSC(C)(C)C value_observed=inactive
compound=NN=C(N)N value_observed=inactive
compound=COP(=S)(OC)Oc1ccc(Sc2ccc(OP(=S)(OC)OC)cc2)cc1 value_observed=inactive
compound=Oc1ccc(Cl)cc1Cl value_observed=inactive
compound=O=NN1CCOCC1 value_observed=inactive
compound=CN(C)P(=O)(N(C)C)N(C)C value_observed=inactive
compound=CCCCCCCCCCCCCl value_observed=inactive
compound=ClCC(Cl)CCl value_observed=inactive
compound=CC(C)(O)C#N value_observed=inactive
compound=S=c1[nH]c2ccccc2[nH]1 value_observed=inactive
compound=COP(=S)(OC)SCn1nnc2ccccc2c1=O value_observed=inactive
compound=C[C@]12CCC(=O)C=C1CC[C@@H]1[C@@H]2CC[C@@]2(C)[C@H]1CC[C@]2(C)O value_observed=inactive
compound="CCN(CC)C(=O)C(C)Oc1cccc2ccccc12 (centres undefined)" value_observed=inactive
compound=Clc1cccc(Cl)c1 value_observed=inactive
